Assayed Target: Tyrosinase (Mus musculus)
Sequence (P11344 whole entry): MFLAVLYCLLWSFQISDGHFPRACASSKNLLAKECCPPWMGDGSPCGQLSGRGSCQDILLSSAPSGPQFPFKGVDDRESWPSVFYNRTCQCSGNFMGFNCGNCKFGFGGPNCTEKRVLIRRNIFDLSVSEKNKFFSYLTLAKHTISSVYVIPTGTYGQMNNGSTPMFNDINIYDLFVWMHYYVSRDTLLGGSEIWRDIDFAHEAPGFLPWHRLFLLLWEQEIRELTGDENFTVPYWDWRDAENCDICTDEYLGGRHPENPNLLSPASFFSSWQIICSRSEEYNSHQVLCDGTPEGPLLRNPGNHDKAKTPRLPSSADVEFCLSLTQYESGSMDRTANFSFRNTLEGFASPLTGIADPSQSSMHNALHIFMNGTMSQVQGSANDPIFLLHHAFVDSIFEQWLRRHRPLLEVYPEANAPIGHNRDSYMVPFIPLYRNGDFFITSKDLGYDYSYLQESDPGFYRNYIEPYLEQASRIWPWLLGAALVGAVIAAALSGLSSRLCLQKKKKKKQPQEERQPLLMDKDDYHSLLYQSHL
Procedure Details: Inhibition of tyrosinase in mouse B16 cells using L-DOPA as substrate preincubated for 72 hrs followed by substrate addition and measured after 30 mins
pIC50: −log10 of the molar value.
Entries annotated with measured pIC50
Experimental Endpoint: pIC50

>>> result("CC/C(=N\\N=C(\\N)S)c1ccccc1")
"> 6.00"
>>> result("NC(=S)N/N=C/c1ccccc1 [PHENYLTHIOSEMICARBAZONE]")
4.99
>>> result("CC(C)C/C(=N\\NC(N)=S)c1ccccc1")
"> 6.00"
>>> result("CC(C)/C(=N\\NC(N)=S)c1ccccc1")
"> 5.64"
>>> result("CCCC/C(=N\\NC(N)=S)c1ccccc1")
5.92
>>> result("CCCCC/C(=N\\NC(N)=S)c1ccccc1")
"> 6.00"
>>> result("CCCCCCCCCCC/C(=N\\NC(N)=S)c1ccccc1")
"> 6.00"
>>> result("CCC/C(=N\\NC(N)=S)c1ccccc1")
"> 6.00"
>>> result("CCCCCC/C(=N\\NC(N)=S)c1ccccc1")
"> 6.00"
>>> result("C/C(=N\\N=C(/N)S)c1ccccc1 [PHENYL(METHYL)THIOSEMICARBAZONE]")
5.70
>>> result("COc1ccc(/C=N/NC(N)=S)cc1")
3.86
